# subject.of.test: adenosine A2B receptor (Homo sapiens (Human), UniProt P29275)
# Sequence (P29275 whole entry): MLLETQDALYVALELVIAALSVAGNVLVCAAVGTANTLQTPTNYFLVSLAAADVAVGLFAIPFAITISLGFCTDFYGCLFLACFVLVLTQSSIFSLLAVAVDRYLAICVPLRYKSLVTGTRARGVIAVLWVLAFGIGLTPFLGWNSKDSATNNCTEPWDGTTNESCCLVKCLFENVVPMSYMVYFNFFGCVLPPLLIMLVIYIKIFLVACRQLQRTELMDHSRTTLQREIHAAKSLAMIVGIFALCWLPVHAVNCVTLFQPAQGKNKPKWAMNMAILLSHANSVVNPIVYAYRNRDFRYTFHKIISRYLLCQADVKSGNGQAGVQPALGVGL
# test.description: Adenosine receptor activity assay (Table 1), A2B activity
# Assay type: biochemical
# assay.context: A2A activity to A2B activity (A2A/A2B)
result.type: Ratio
Just the number, please.

molecule	subject.of.test	Ratio
C[C@H](Nc1nc(C(=O)NCCc2ccncc2)c2sccc2n1)c1cncc(F)c1	adenosine A2B receptor (Homo sapiens (Human), UniProt P29275)	18.44
Cc1cncc(CNc2nc(C(=O)N3CC[C@H](O)C3)c3sccc3n2)c1	adenosine A2B receptor (Homo sapiens (Human), UniProt P29275)	50.76
COCC(Nc1nc(C(=O)NC2COC2)c2sccc2n1)c1cccnc1 (stereo not shown)	adenosine A2B receptor (Homo sapiens (Human), UniProt P29275)	5.35

With adenosine A2B receptor (Homo sapiens (Human), UniProt P29275) as the test system, `C[C@H](Nc1nc(C(=O)N2CCN(C(=O)OC(C)(C)C)C2)c2sccc2n1)c1cccnc1` showed Ratio of 1.36

With adenosine A2B receptor (Homo sapiens (Human), UniProt P29275) as the test system, `C[C@H](Nc1nc(C(=O)NC2CCCC2)c2sccc2n1)c1ccccn1` showed Ratio of 1.80

With adenosine A2B receptor (Homo sapiens (Human), UniProt P29275) as the test system, `COC[C@@H](Nc1nc(C(=O)NC[C@@H](C)O)c2sccc2n1)c1cccnc1` showed Ratio of 3.66

With adenosine A2B receptor (Homo sapiens (Human), UniProt P29275) as the test system, `COC[C@@H](Nc1nc(C(=O)N2CCC2)c2sccc2n1)c1cccnc1` showed Ratio of 30.12

With adenosine A2B receptor (Homo sapiens (Human), UniProt P29275) as the test system, `COC[C@H](Nc1nc(C(=O)NC[C@@H](C)O)c2sccc2n1)c1cccnc1` showed Ratio of 1.87

With adenosine A2B receptor (Homo sapiens (Human), UniProt P29275) as the test system, `C[C@H](Nc1nc(C(=O)N2CCC[C@@H]2C)c2sccc2n1)c1cncc(F)c1` showed Ratio of 9.24

With adenosine A2B receptor (Homo sapiens (Human), UniProt P29275) as the test system, `C[C@H](Nc1nc(C(=O)NCCO)c2sccc2n1)c1ccccn1` showed Ratio of 2.95

With adenosine A2B receptor (Homo sapiens (Human), UniProt P29275) as the test system, `C[C@H](Nc1nc(C(=O)NCc2ncc[nH]2)c2sccc2n1)c1ccccn1` showed Ratio of 2.03

With adenosine A2B receptor (Homo sapiens (Human), UniProt P29275) as the test system, `C[C@H](Nc1nc(C(=O)NCC(C)(C)O)c2sccc2n1)c1ccccn1` showed Ratio of 7.45

With adenosine A2B receptor (Homo sapiens (Human), UniProt P29275) as the test system, `C[C@H](Nc1nc(C(=O)N2CCCC2)c2sccc2n1)c1ccncc1` showed Ratio of 8.03

With adenosine A2B receptor (Homo sapiens (Human), UniProt P29275) as the test system, `COC1CN(C(=O)c2nc(N[C@@H](C)c3cccnc3)nc3ccsc23)C1` showed Ratio of 8.08

With adenosine A2B receptor (Homo sapiens (Human), UniProt P29275) as the test system, `Cc1ncccc1CNc1nc(C(=O)N2CCCC2)c2sccc2n1` showed Ratio of 16.69

With adenosine A2B receptor (Homo sapiens (Human), UniProt P29275) as the test system, `O=C(c1nc(NCc2cccc(Cl)c2)nc2ccsc12)N1CCCC1` showed Ratio of 13.39

With adenosine A2B receptor (Homo sapiens (Human), UniProt P29275) as the test system, `O=C(c1nc(NCCn2ccnc2)nc2ccsc12)N1CCCC1` showed Ratio of 2.15

With adenosine A2B receptor (Homo sapiens (Human), UniProt P29275) as the test system, `C[C@H](Nc1nc(C(=O)N2CCC(F)(F)C2)c2sccc2n1)c1ccccn1` showed Ratio of 5.59

With adenosine A2B receptor (Homo sapiens (Human), UniProt P29275) as the test system, `C[C@H](Nc1nc(C(=O)N2CC[C@@H](F)C2)c2sc(N)cc2n1)c1cccnc1` showed Ratio of 17.59

With adenosine A2B receptor (Homo sapiens (Human), UniProt P29275) as the test system, `C[C@H](Nc1nc(C(=O)NCC2CCOCC2)c2sccc2n1)c1cncc(F)c1` showed Ratio of 10.57

---

# subject.of.test: adenosine A3 receptor (Homo sapiens (Human))
# Sequence (P0DMS8 whole entry): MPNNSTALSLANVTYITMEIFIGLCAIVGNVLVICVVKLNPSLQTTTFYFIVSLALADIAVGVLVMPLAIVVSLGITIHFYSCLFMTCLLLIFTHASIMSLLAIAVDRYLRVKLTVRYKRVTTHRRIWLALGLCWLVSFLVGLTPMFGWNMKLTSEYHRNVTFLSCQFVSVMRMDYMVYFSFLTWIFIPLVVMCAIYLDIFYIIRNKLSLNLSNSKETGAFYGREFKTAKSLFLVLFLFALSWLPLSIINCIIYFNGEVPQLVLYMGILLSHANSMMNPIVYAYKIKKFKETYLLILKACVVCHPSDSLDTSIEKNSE
# test.description: A3 cAMP IC50 assay (Table 1)
# Type: biochemical
pIC50: −log10 of the molar value.
result.type: pIC50

These recorded examples may help you get a feel for the data.
record.smiles	pIC50
C[C@H](Nc1nc(C(=O)N2CC[C@@H](O)C2)c2sccc2n1)c1ccccn1	< 6.30
C[C@H](Nc1nc(C(=O)N2CCC(F)(F)C2)c2sccc2n1)c1cccnc1	< 6.30
N#Cc1cncc(CNc2nc(C(=O)N3CCCC3)c3sccc3n2)c1	< 6.30
C[C@H](Nc1nc(C(=O)N2CC(F)(F)C2)c2sccc2n1)c1ccccn1	< 6.30
COc1ccc(CNC(=O)c2nc(N[C@@H](C)c3ccccn3)nc3ccsc23)cn1	< 6.30
O=C(c1nc(NCc2cncc(Cl)c2)nc2ccsc12)N1CCCC1	< 6.30
CNc1cc2nc(N[C@@H](C)c3cccnc3)nc(C(=O)N3CCCC3)c2s1	7.00 to 7.30
CNc1cc2nc(N[C@@H](C)c3ccccn3)nc(C(=O)N3CCC3)c2s1	7.00 to 7.30

Lookup result for `CCNC(=O)c1nc(N[C@@H](C)c2ccccn2)nc2ccsc12` ; measured pIC50: < 6.30

---

# subject.of.test: adenosine A2B receptor (Homo sapiens (Human), UniProt P29275)
# test.description: Adenosine receptor activity assay (Table 1), A2B activity
# Assay type: biochemical
# assay.context: A2A activity to A2B activity (A2A/A2B)
Define the label as class 1 when Ratio is strictly less than 20 and as class 0 in all remaining cases.

Consider the worked cases shown below.
record.smiles	qualitative.label
C[C@H](Nc1nc(C(=O)NCCc2ccc(CO)cc2)c2sccc2n1)c1cncc(F)c1	class 1
CNc1cc2nc(N[C@@H](C)c3cncc(F)c3)nc(C(=O)N3CCCC3)c2s1	class 0
C[C@H](Nc1nc(C(=O)Nc2ccccc2)c2sccc2n1)c1ccccn1	class 1
C[C@H](Nc1nc(C(=O)N2CC[C@H](F)C2)c2sc(N)cc2n1)c1cccnc1	class 1
Cc1cc2nc(N[C@@H](C)c3cncc(F)c3)nc(C(=O)NCC(F)(F)F)c2s1	class 0

Req: Determine whether this compound shows Ratio lower than 20 (ties excluded): `CO[C@H]1CCN(C(=O)c2nc(N[C@@H](C)c3cccnc3)nc3ccsc23)C1`
Resp: class 1

Req: Determine whether this compound shows Ratio lower than 20 (ties excluded): `C[C@H](Nc1nc(C(=O)NC[C@@H](C)O)c2sc(C(F)(F)F)cc2n1)c1cccnc1`
Resp: class 0

Req: Determine whether this compound shows Ratio lower than 20 (ties excluded): `CNc1cc2nc(N[C@@H](C)c3cncc(F)c3)nc(C(=O)N3CCC3)c2s1`
Resp: class 0

Req: Determine whether this compound shows Ratio lower than 20 (ties excluded): `C[C@H](Nc1nc(C(=O)NC[C@@H](C)O)c2sccc2n1)c1cncc(F)c1`
Resp: class 0

Req: Determine whether this compound shows Ratio lower than 20 (ties excluded): `COc1ccc(CNC(=O)c2nc(N[C@@H](C)c3ccncc3)nc3ccsc23)cn1`
Resp: class 1

Req: Determine whether this compound shows Ratio lower than 20 (ties excluded): `O=C(c1nc(NCc2ccccn2)nc2ccsc12)N1CCCC1`
Resp: class 1

Req: Determine whether this compound shows Ratio lower than 20 (ties excluded): `C[C@H](Nc1nc(C(=O)N2CC[C@H](N)C2)c2sccc2n1)c1cccnc1`
Resp: class 1

Req: Determine whether this compound shows Ratio lower than 20 (ties excluded): `O=C(c1nc(NCc2cccc(F)c2)nc2ccsc12)N1CCCC1`
Resp: class 1

Req: Determine whether this compound shows Ratio lower than 20 (ties excluded): `C[C@H](Nc1nc(C(=O)N2CC[C@@H](O)C2)c2sc(C(F)(F)F)cc2n1)c1cncc(F)c1`
Resp: class 0

Req: Determine whether this compound shows Ratio lower than 20 (ties excluded): `CNc1cc2nc(N[C@@H](C)c3ccccn3)nc(C(=O)N3CC[C@@H](F)C3)c2s1`
Resp: class 0

---

# subject.of.test: adenosine A1 receptor (Homo sapiens (Human), UniProt P30542)
# Sequence (P30542 whole entry): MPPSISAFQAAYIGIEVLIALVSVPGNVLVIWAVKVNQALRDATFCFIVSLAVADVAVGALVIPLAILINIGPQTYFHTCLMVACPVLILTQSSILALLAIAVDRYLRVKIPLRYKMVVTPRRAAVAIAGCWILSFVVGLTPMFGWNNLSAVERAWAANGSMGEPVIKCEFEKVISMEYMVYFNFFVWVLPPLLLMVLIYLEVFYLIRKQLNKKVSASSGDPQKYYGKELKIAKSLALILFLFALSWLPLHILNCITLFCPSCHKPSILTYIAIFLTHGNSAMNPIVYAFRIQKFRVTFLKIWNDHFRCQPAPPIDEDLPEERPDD
# test.description: Adenosine receptor activity assay (Table 1), A1 cAMP
# Type: cell-based
result.type: IC50

Lookup result for `C[C@H](Nc1nc(C(=O)N2CCC2)c2sc(N)cc2n1)c1cncc(F)c1` ; measured IC50: > 500 nM

Lookup result for `COc1cccc(CNC(=O)c2nc(N[C@@H](C)c3cncc(F)c3)nc3cc(C)sc23)n1` ; measured IC50: 50 to 100 nM

Lookup result for `C[C@H](Nc1nc(C(=O)N2CC[C@H](CO)C2)c2sccc2n1)c1cncc(F)c1` ; measured IC50: > 500 nM

Lookup result for `C[C@H](Nc1nc(C(=O)N2CC[C@H](CO)C2)c2sccc2n1)c1cccnc1` ; measured IC50: > 500 nM

Lookup result for `C[C@H](Nc1nc(C(=O)N2CC[C@@H](O)C2)c2sccc2n1)c1cncc(Cl)c1` ; measured IC50: > 500 nM

Lookup result for `Cc1cc2nc(N[C@@H](C)c3cncc(F)c3)nc(C(=O)NC[C@@H](C)O)c2s1` ; measured IC50: 50 to 100 nM

Lookup result for `C[C@H](Nc1nc(C(=O)N2CCC[C@@H]2C)c2sccc2n1)c1cncc(F)c1` ; measured IC50: > 500 nM

Lookup result for `C[C@H](Nc1nc(C(=O)NC[C@@H](C)O)c2sccc2n1)c1cncc(Cl)c1` ; measured IC50: 50 to 100 nM

Lookup result for `Cc1cc2nc(N[C@@H](C)c3cncc(F)c3)nc(C(=O)N3CCC3)c2s1` ; measured IC50: 50 to 100 nM
